Reference for the values: the supplement of paper PMC10338343

System: EfPiwi piRISC loaded with piRNA #1 (26 nt)
PROTOCOL NOTES: pre-steady-state target cleavage rate (min^-1); auxiliary factor: 500 nM Ephydatia muelleri Gtsf1; guide: piRNA #1 5'p-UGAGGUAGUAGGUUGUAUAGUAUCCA; MIWI and MILI are mouse PIWI proteins and EfPiwi is from a freshwater sponge; tags in brackets are library labels; higher = faster piRNA-guided slicing of the target
Threshold check on pre-steady-state target cleavage rate: at or above 0.008 gives class 1, strictly below gives class 0.

Example entries and their recorded answers appear below.
                     residue_codes  class_label
0  GGAGACCAUACUAUGACAACCUACUACCUCA      class 0
1    GGAGACGAUACUAUCAACCUACUACCUCA      class 1
2    GGAGACCAUACUUACAACCUACUACCUCA      class 1
3   GGAGUCGAUACUAUACAACCUACAACCUCA      class 0
4   GGAGACCUAACUAUACAACGUAGUACCUCA      class 0

Exam item: decide whether the reported pre-steady-state target cleavage rate for "GGAGACGAUACUAUACAUCCUAGUACCUCA" is at least 0.008.
class 0

Follow-up item: "GGAGAGGAUACUAUACAACCAAGUACCUCA"
class 0

Cool, now "GGAGACCUAUCUGAUACAACCUACUACCUCA"
class 0

What do we get for "GGAGAGGAUUCUAUACAAGCUACUACCUCA" ?
class 0

Queued: "GGAGACCUUACUAUACAACAUACUACCUCA"
class 1

Could you do the same for "GGAGACGAUACUAUACAACCUGACUACCUCA" , please?
class 0

Can you check "GGAGUGGAUACUAUACUACGUACUACCUCA" next?
class 0

"GGAGAGGAUACUAUCCAACCUACUACCUCA" ?
class 1
